Target: human TLR7 (Homo sapiens, UniProt Q9NYK1)
Sequence (Q9NYK1 27-1049): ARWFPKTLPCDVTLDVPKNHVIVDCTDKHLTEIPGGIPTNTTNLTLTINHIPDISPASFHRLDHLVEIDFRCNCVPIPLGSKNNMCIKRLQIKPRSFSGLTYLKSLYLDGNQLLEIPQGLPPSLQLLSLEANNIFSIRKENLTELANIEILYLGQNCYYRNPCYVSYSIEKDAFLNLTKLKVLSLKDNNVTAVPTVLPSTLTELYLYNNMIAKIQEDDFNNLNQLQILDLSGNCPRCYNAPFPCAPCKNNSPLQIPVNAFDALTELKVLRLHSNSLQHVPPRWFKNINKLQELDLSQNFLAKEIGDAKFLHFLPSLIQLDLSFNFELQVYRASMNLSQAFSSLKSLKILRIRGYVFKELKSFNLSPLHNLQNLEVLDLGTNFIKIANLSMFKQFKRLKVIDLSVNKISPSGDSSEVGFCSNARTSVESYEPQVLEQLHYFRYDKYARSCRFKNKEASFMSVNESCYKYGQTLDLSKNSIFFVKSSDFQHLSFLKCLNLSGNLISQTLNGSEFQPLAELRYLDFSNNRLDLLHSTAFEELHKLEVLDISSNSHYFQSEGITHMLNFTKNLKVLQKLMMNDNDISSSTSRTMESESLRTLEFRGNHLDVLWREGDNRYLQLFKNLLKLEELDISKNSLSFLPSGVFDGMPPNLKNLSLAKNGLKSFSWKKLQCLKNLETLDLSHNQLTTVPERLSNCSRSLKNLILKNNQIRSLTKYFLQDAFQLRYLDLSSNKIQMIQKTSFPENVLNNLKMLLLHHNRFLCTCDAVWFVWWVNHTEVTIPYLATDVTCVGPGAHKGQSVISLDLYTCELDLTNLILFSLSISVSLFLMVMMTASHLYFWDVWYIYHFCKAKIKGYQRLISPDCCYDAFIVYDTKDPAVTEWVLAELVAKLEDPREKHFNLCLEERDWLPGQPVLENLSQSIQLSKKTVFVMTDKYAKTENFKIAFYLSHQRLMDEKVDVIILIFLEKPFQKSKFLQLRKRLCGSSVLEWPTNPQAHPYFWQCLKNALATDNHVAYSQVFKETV
Experiment: TLR7 inhibition reporter assay (HEK-Blue cells, SEAP reporter, gardiquimod stimulation)
Conditions: HEK-Blue cells overexpressing human TLR7, SEAP reporter, gardiquimod 7.5 μM
MEASURE: IC50

Past entries and their recorded results:
{"SAMPLE_SMILES": "CC(C)N1CCC(c2ccc3[nH]c(-c4ccc5nccn5c4)c(CC(F)F)c3c2)CC1", "REPORTED_VALUE": "< 0.1 µM"}
{"SAMPLE_SMILES": "CCCN1CCC(c2ccc3[nH]c(-c4ccc5c(c4)COC5=O)c(C(C)C)c3c2)CC1", "REPORTED_VALUE": "< 0.1 µM"}
{"SAMPLE_SMILES": "Cc1cn2cc(-c3[nH]c4ccc(C5CCNCC5)cc4c3C(C)C)cnc2n1", "REPORTED_VALUE": "< 0.1 µM"}
{"SAMPLE_SMILES": "Cc1cc(-c2[nH]c3ccc(C4CCN(CC(=O)N(C)C)CC4)cc3c2C(C)C)cc2cn(C)nc12", "REPORTED_VALUE": "< 0.1 µM"}
{"SAMPLE_SMILES": "Cc1cc(-c2[nH]c3ccc(C4CCN(C(=O)CN(C)C)CC4)cc3c2C(C)C)cn2nnnc12", "REPORTED_VALUE": "< 0.1 µM"}
{"SAMPLE_SMILES": "CCc1c(-c2ccnc3[nH]ncc23)[nH]c2ccc(C3CCNCC3)cc12", "REPORTED_VALUE": "< 0.1 µM"}

// Cc1cc(-c2[nH]c3ccc(C4CCNCC4)cc3c2C(C)C)c2ccccc2n1 : IC50 value = < 0.1 µM

Record CC(C)c1c(-c2cnc3ccnn3c2)[nH]c2ccc(C3CCNCC3)cc12 , field IC50: 1 to 50 µM

For Cc1c(-c2ccnc3cn[nH]c23)[nH]c2ccc(C3CCNCC3)cc12 the compound record lists IC50 as 0.1 to 1 µM

Data point: COc1cc(-c2[nH]c3ccc(C4CCN(CC(C)(C)O)CC4)cc3c2C(C)C)nn2ncnc12 ; IC50 = < 0.1 µM
